Test system: Helicobacter pylori No. 28
Experiment: MIC, agar plating dilution, clinical segregation strain
Type: cell-based
Settings: Strain 10: Helicobacter pylori No. 28
Reported MIC values follow for various compounds
observable: MIC (µg/mL)

{"compound": "Cl.N=C(N)NC[C@H]1CC[C@H](C(=O)Oc2ccc(-c3ccc(Cl)cc3)cc2)CC1", "observable": "MIC", "test.value": 0.39}
{"compound": "CC1COc2c(N3CCN(C)CC3)c(F)cc3c(=O)c(C(=O)O)cn1c23 (stereo not drawn) [Ophroxacine, ophroxacine, reference compound]", "observable": "MIC", "test.value": 1.56}
{"compound": "Cl.N=C(N)NC[C@H]1CC[C@H](C(=O)Oc2ccc(-c3ccc(C(=O)OCCc4ccc(Cl)cc4)cc3)cc2)CC1", "observable": "MIC", "test.value": 0.39}

====

Tested on: Helicobacter pylori ATCC 43504
Experiment: MIC, agar plating dilution (standard method of Japanese Chemotherapy Academy)
Assay type: cell-based
Conditions: ATCC43504, Objected Strain 1: Helicobacter pylori ATCC 43504, read-out: MIC
Experimental: 1. Minimum Inhibitory Concentration (MIC) was measured in accordance with the standard method of Japanese Chemotherapy Academy (Chemotherapy, 29: 76-79, 1981). Sensitivity was measured with an agar plating dilution using Brain-Heart Infusion agar (Difco Co.) which was added 0.1% of cyclodextrin. […] of the solutions of the compounds which were obtained in examples of the present invention was prepared by dissolving in dimethylsulfoxide. […]
Reported MIC values follow for various molecules
observable: MIC (µg/mL)

{"molecule": "N=C(N)NCC1CCC(C(=O)Oc2ccc(C(=O)OCc3ccccc3)cc2)CC1 (stereo not shown) [Compound 5, reference compound]", "observable": "MIC", "test.value": 12.5}
{"molecule": "CC(C)(C)c1ccc(OC(=O)C2CCC(CNC(=N)N)CC2)cc1 (stereo not shown) [Compound 7, reference compound]", "observable": "MIC", "test.value": 25}
{"molecule": "CCc1ccc(OC(=O)C2CCC(CNC(=N)N)CC2)cc1 (stereo not shown) [Compound 6, reference compound]", "observable": "MIC", "test.value": 25}
{"molecule": "CC1(C)S[C@@H]2[C@H](NC(=O)[C@H](N)c3ccc(O)cc3)C(=O)N2[C@H]1C(=O)O [Amoxicillin, amoxicillin, reference compound]", "observable": "MIC", "test.value": 0.05}

====

Reported MIC values follow for various compounds
System: Escherichia coli NIH JC-2
Assay: MIC, standard method of Japanese Chemotherapy Academy
Type: cell-based
Details: Objected Strain 3: Escherichia coli NIH JC-2

{"chemical.string": "Cl.N=C(N)NC[C@H]1CC[C@H](C(=O)Oc2ccc(-c3ccc(C(=O)OCc4ccccc4F)cc3)cc2)CC1", "MIC": ">25 µg/mL"}
{"chemical.string": "Cl.N=C(N)NC[C@H]1CC[C@H](C(=O)Oc2ccc(OCc3ccccc3)cc2)CC1", "MIC": ">25 µg/mL"}
{"chemical.string": "Cl.N=C(N)NC[C@H]1CC[C@H](C(=O)Oc2ccc(-c3ccc(C(=O)OCc4ccccc4)cc3)cc2)CC1", "MIC": ">25 µg/mL"}
{"chemical.string": "Cl.N=C(N)NC[C@H]1CC[C@H](C(=O)Oc2c(Cl)cc(-c3ccccc3)cc2Cl)CC1", "MIC": ">25 µg/mL"}
{"chemical.string": "Cl.N#Cc1ccc(-c2ccc(OC(=O)[C@H]3CC[C@H](CNC(=N)N)CC3)cc2)cc1", "MIC": ">25 µg/mL"}
{"chemical.string": "Cc1ccc(COC(=O)c2ccc(-c3ccc(OC(=O)[C@H]4CC[C@H](CNC(=N)N)CC4)c(Br)c3)cc2)cc1.Cl", "MIC": ">25 µg/mL"}
